# target_system: Melanocyte-stimulating hormone receptor (Mus musculus, UniProt Q01727)
# Sequence (Q01727 whole entry): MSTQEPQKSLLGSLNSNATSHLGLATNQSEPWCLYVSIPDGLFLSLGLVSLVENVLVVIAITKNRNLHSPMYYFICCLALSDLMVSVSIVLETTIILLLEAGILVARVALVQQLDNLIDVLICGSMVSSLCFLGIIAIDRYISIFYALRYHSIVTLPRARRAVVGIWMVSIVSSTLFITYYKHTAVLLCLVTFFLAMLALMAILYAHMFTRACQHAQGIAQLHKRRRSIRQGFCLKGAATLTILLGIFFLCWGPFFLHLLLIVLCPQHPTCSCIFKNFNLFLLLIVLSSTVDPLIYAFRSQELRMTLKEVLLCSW
# procedure_text: Displacement of [125I]NDP-MSH from MC1 receptor in mouse B16 cells
# Format: cell-based
Assign labels as follows, please: true (1) for Ki below 3 µM; false (0) for Ki equal to or exceeding 3 µM.

> print(dat)
                                    compound  group.label
 1  CC(C)N(CCCCN)C(=O)c1c(Cc2ccc(O)cc2)[nH]c2ccccc12    false (0)
 2  Cc1ccccc1CN(C(=O)CCCc1c(Cc2ccc(O)cc2)[nH]c2ccccc12)C1CCC(CC2CCC(N)CC2)CC1 (configuration not stated)    false (0)
 3  NCCN(C(=O)CCCc1c[nH]c2ccccc12)C1CCC2(CCCCC2)CC1    false (0)
 4  NC1CCC(CC2CCC(N(C(=O)CCCc3c[nH]c4ccccc34)C3CCc4ccccc4C3)CC2)CC1 (configuration not stated)    false (0)
 5  NCCCN(C(=O)CCc1c[nH]c2ccccc12)C1CCc2ccccc2C1 (configuration not stated)    false (0)
 6  Cc1cccc(CN(C(=O)CCCc2c(Cc3ccc(O)cc3)[nH]c3ccccc23)C2CCC(CC3CCC(N)CC3)CC2)c1 (configuration not stated)     true (1)
 7  NC1CCC(CC2CCC(N(C/C(Cl)=C/c3ccccc3)C(=O)COc3ccc4ccccc4c3)CC2)CC1 (stereo in doubt; form 5)     true (1)
 8  N=C(N)NCCCCN(Cc1ccc2ccccc2c1)C(=O)CCCc1c[nH]c2ccccc12    false (0)
 9  CCOc1cc(CN(C(=O)CCCc2c(Cc3ccc(O)cc3)[nH]c3ccccc23)C2CCC(CC3CCC(N)CC3)CC2)ccc1OC (configuration not stated)     true (1)
10  CSc1ccc(CN(C(=O)CCCc2c(Cc3ccc(O)cc3)[nH]c3ccccc23)C2CCC(CC3CCC(N)CC3)CC2)cc1 (configuration not stated)    false (0)
11  NCc1cccc(CN(Cc2ccccc2)C(=O)CCCc2c[nH]c3ccccc23)c1     true (1)
12  COc1cc(O)ccc1/C=C/CN(C(=O)CCCc1c[nH]c2ccccc12)C1CCC(CC2CCC(N)CC2)CC1 (stereo in doubt; form 1)     true (1)
13  NCCN(C(=O)[C@H](N)Cc1ccc(Cl)cc1)C1CCC2(CCCCC2)CC1    false (0)
14  Cc1cccc(CN(C(=O)CCCc2c[nH]c3ccccc23)C2CCC(CC3CCC(N)CC3)CC2)c1 (configuration not stated)     true (1)
15  NCC1CCC(CN(C/C(Cl)=C/c2ccccc2)C(=O)CCCc2c[nH]c3ccccc23)CC1 (configuration not stated)     true (1)
16  COc1cc(Cl)c(CN(C(=O)CCCc2c[nH]c3ccccc23)C2CCC(CC3CCC(N)CC3)CC2)cc1OC (stereo in doubt; form 2)     true (1)
17  Cc1ccc(CN(C(=O)CCCc2c[nH]c3ccccc23)C2CCC(CC3CCC(N)CC3)CC2)cc1 (configuration not stated)     true (1)
